# Tested on: SK-OV-3 (ovarian cancer cell)
# experiment-description: Solid tumor cell growth inhibition, MTT, 72 h (Example 7)
# Assay type: cell-based
# test-conditions: Homo sapiens
endpoint-name: IC50 (µg/mL)

- compound: "COc1ccc2cc1Oc1ccc(cc1)C[C@H]1c3cc(c(OC)cc3CCN1C)Oc1c(OC)c(OC)c(CN3CCSCC3)c3c1[C@H](C2)N(C)CC3"
  IC50 / µg/mL: 6.8

[1] COCC(C)OCc1c2c3c(c(OC)c1OC)Oc1cc4c(cc1OC)CCN(C)[C@H]4Cc1ccc(cc1)Oc1cc(ccc1OC)C[C@@H]3N(C)CC2 (stereo partly drawn)
[2] CCN1CCN(Cc2c3c4c(c(OC)c2OC)Oc2cc5c(cc2OC)CCN(C)[C@H]5Cc2ccc(cc2)Oc2cc(ccc2OC)C[C@@H]4N(C)CC3)CC1
**Query** Select the item with the higher value of IC50 from the options 1 and 2 listed. Select an item and report its label.
**Result** 1
(1: 7.1 µg/mL, 2: 2 µg/mL)

###

# Test system: A549 (human lung cancer)
# experiment-description: Solid tumor cell growth inhibition, MTT, 72 h (Example 7)
# Type: cell-based
# test-conditions: Homo sapiens; 72 h, MTT, A549
endpoint-name: IC50 (µg/mL)

Take a look at these entries with their results.
- compound: "COCCCOCc1c2c3c(c(OC)c1OC)Oc1cc4c(cc1OC)CCN(C)[C@H]4Cc1ccc(cc1)Oc1cc(ccc1OC)C[C@@H]3N(C)CC2"
  endpoint-name: "IC50"
  assay-value: 4.05
- compound: "COc1ccc2cc1Oc1ccc(cc1)C[C@H]1c3cc(c(OC)cc3CCN1C)Oc1c(OC)c(OC)c(CN3CCC(N(C)C)CC3)c3c1[C@H](C2)N(C)CC3"
  endpoint-name: "IC50"
  assay-value: 1.8

[1] COc1ccc2cc1Oc1ccc(cc1)C[C@H]1c3cc(c(OC)cc3CCN1C)Oc1c(OC)c(OC)c(CN3CCCCC3)c3c1[C@H](C2)N(C)CC3
[2] COCC(C)OCc1c2c3c(c(OC)c1OC)Oc1cc4c(cc1OC)CCN(C)[C@H]4Cc1ccc(cc1)Oc1cc(ccc1OC)C[C@@H]3N(C)CC2 (stereo partly shown)
[3] COc1ccc2cc1Oc1ccc(cc1)C[C@H]1c3cc(c(OC)cc3CCN1C)Oc1c(OC)c(OC)c(Cn3cccn3)c3c1[C@H](C2)N(C)CC3
[4] COc1ccc2cc1Oc1ccc(cc1)C[C@H]1c3cc(c(OC)cc3CCN1C)Oc1c(OC)c(OC)c(CN3CCC(O)C3)c3c1[C@H](C2)N(C)CC3 (stereo partly shown)
**Query** Rank ascending by IC50. Put the labels in the requested order and write them down.
**Result** 4, 1, 3, 2
(4: 1.83 µg/mL, 1: 3.4 µg/mL, 3: 5.44 µg/mL, 2: 8.4 µg/mL)
